This collection of values is drawn from patent US20190071499A1.

Biological target: human IFN-α16 (human, UniProt P05015 24-189)
Sequence (P05015 24-189 limits assumed): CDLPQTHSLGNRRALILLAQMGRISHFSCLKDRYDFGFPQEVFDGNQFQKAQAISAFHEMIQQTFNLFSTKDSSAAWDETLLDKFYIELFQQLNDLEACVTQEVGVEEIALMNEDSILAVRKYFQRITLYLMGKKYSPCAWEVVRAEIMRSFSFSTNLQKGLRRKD
Test: cell-based or functional assay
IC 50 (ng/ml), ISRE dual luciferase reporter assay reference
Numeric only. Scale: ng/mL

Sample records with IC 50 (ng/ml), ISRE dual luciferase reporter assay:
| binder | assayResult |
| --- | --- |
| 12H5 (antibody, human IgG1, kappa, V domains shown) VH: QVQLIQSGPEVKRPGASVKVSCKASENTFDTHYINWVRQAPGQGLTWLGWLNPTTGKTGFPQKFKGRVILTSDTSLNTAYMEVSRLTSEDTAVYFCARVLKLSDEYNYGFDVWGQGTTVIVSS VL: DIQVTQSPSSLSASIGDRVTITCRASQNILTFINWYQHKPGKAPKLLIYAASVLQNEVPSRFSGSGSGTDFTLTITSLQPDDFGTYYCQQTYLTPQCSFGQGTKVEIKR | 33 |
| 26B9 (antibody, human IgG1, kappa, V domains shown, human-derived IgG1, kappa; also called MAB 26B9; hMAB 26B9) VH: QILLQESGPGLVKPTETLSLTCSVSGDSISDSSHYWAWIRQPPGKGPEWIGSVYFSSMTHYNPSLKSRVSISVDKPKNQFSLKVTSVTVADTATYYCARQALARVGAMNWFDPWGQGSLVTVSS VL: DIIMTQSPDSLPVSLGEGVTINCKSSQSVFFTSSNKSCLAWYQQKPGKSPKLLIYWASTRQSGVPDRFRGSGSGTDFSLTITSLQAEDVAVYFCQQCQTSPPTFGGGTRLEIKR | 4010 |
| 8H1 (antibody, human IgG1, kappa, V domains shown) VH: QVQLVQSGAEVKKPGASVKVSCKASGQTFTSDDINWVRQAPGQGLEWMGWRNPNTQDTGYAQKFHGRLTLTSNSSISTSYLELSGLRSEDTAVYYCARAGTSTLTGHYFALGVWGQGTTVIVSS VL: DIQLTQSPSSLSASVGDRVTITCQATQDISKYLNWYQQKPGKVPKLLIYETSNLEVGVPSRFSGSGSGTHFTLTISSLQAEDFATYYCQQYENFPFTFGGGTKVEIKR | 1.86 |

Now look at this one.
Read the entry 50E11 (antibody, human IgG1, kappa, V domains shown) VH: QVQLVQSGAEMKKPGSSVKVSCKDFGGTFSVYGVNWVRQAPGQGLEWMGGLIPVIGPANYAQKFQGRITITADESTSTAYMELSSLRFDDTAIYYCVRDDNEYWGQGTLVTVSS VL: EMVLTQSPATLSLSPGERATLSCRASQTVSTFLAWYQQKPGQVPRLLVYDISSRANGTPARFSGGGSGTDFTLTISSLELEDFAVYYCQWRSNWPPSLTFGGGTRVEIKR and write its reported IC 50 (ng/ml), ISRE dual luciferase reporter assay.
2.35
